- Read-out: Monocyte Chemoattractant Protein-1 (MCP1), CCL2 (gene 6347)
- experimental-details: BSK_4H_MCP1: BioMAP Diversity Plus: 4H Assay for Monocyte Chemoattractant Protein-1 (MCP1) Biomarker Activity (AID 2283018)
- details: primary human endothelial cells (HUVEC); actives raise or lower the signal
Activity calls are given as the source filed them. How the source made its calls: active means hit-call score of the fitted dose curve at least 0.9, where 1 is the maximum; inactive means score below 0.9.
Outcome codes: active, inactive

compound | group-label
OCc1c[nH]c2ccccc12 | inactive
OC(O)(C(F)C(O)(O)C(F)(F)F)C(F)(F)F | inactive
NNC(=O)c1ccncc1 | inactive
O=C(NO)C1(NS(=O)(=O)c2ccc(Oc3ccc(F)cc3)cc2)CCOCC1 | inactive
COc1cc(C(C)C)c2c(c1)S(=O)(=O)N(COc1cc(=O)n3cccc(OCCN4CCCCC4)c3n1)C2=O | inactive
NC(=O)N(O)[C@@H]1COc2cc(OCc3ccccc3)ccc21 | inactive
O=C(O)[C@H](O)[C@@H](O)C(=O)O | inactive
COCc1nnc(-c2ccc[n+]([O-])c2)n1-c1c(Cl)c(Cl)cc2[nH]c(=O)c(=O)[nH]c12 | inactive
CC(C)CC(C)O (stereo not drawn) | inactive
O=c1[nH]cnc2c1ncn2[C@H]1CC[C@@H](CO)O1 | inactive
OC[C@H]1O[C@@H]2O[C@H]3[C@H](O)[C@@H](O)[C@@H](O[C@H]4[C@H](O)[C@@H](O)[C@@H](O[C@H]5[C@H](O)[C@@H](O)[C@@H](O[C@H]6[C@H](O)[C@@H](O)[C@@H](O[C@H]7[C@H](O)[C@@H](O)[C@@H](O[C@H]1[C@H](O)[C@H]2O)O[C@@H]7CO)O[C@@H]6CO)O[C@@H]5CO)O[C@@H]4CO)O[C@@H]3CO | inactive
Cc1nccn1-c1ccc(Sc2cccc(C3(C(N)=O)CCOCC3)c2)cc1 | active
C=CCc1cc(S(=O)(=O)c2ccc(O)c(CC=C)c2)ccc1O | inactive
O=C(O)c1cccc(C(=O)O)c1 | inactive
OCCOCCOCCO | inactive
OCCC(F)(F)C(F)(F)C(F)(F)C(F)(F)F | inactive
O=S(=O)(O)c1ccc(N=Nc2c(O)ccc3cc(S(=O)(=O)O)ccc23)cc1 | inactive
O=S1(=O)CCCO1 | inactive

The values you see were collected from PubChem BioAssay (EPA / NIEHS).
